- Tested on: HBV rcDNA in HepDE19 cells
- Method Notes: HepDE19 assay with bDNA quantitation of HBV rcDNA
- Type: cell-based, hepatitis B virus
- Conditions: Hepatitis B virus, HepDE19, HepDE19 assay, inhibition of rcDNA formation, bDNA quantitation; read-out: DE-19bDNA EC50
pEC50: −log10 of the molar value.
Measurement Name: pEC50

>>> df
                                   compound  observed
0  CN(C(=O)c1ccc(C(F)(F)F)c(F)c1)C1COCc2[nH]c(=O)c3cscc3c21 (racemic) [Compound 133]      7.22
1  CN(C(=O)c1cc2ccc(Br)cn2c1)[C@@H]1COCc2[nH]c(=O)c3cc(F)c(F)cc3c21 [Compound 348]      7.40
2  CN(C(=O)c1ccc(C(C)(C)O)cc1)[C@@H]1COCc2[nH]c(=O)c3cc(F)c(F)cc3c21 [Compound 154]      5.98
3  CN(C(=O)c1cc(F)cc(Oc2ccccc2)c1)[C@@H]1COCc2[nH]c(=O)c3cc(F)c(F)cc3c21 [Compound 303]      5.17
4  CN(C(=O)C1Cc2cc(F)c(F)cc2C1)[C@@H]1COCc2[nH]c(=O)c3cc(F)c(F)cc3c21 [Compound 233]      7.40
5  CN(C(=O)C(F)(F)c1ccc(Br)cc1)[C@@H]1COCc2[nH]c(=O)c3cc(F)c(F)cc3c21 [Compound 253]      5.10
6  CN(C(=O)c1c(F)cc(Br)cc1F)[C@@H]1COCc2[nH]c(=O)c3cc(F)c(F)cc3c21 [Compound 246]      5.71

---

Below: a set of entries, each annotated with reported log10(EC50).
- Test system: HBV rcDNA in HepDE19 cells
- Method Notes: HepDE19 assay with bDNA quantitation of HBV rcDNA
- Type: cell-based, hepatitis B virus
- Conditions: Hepatitis B virus, HepDE19, HepDE19 assay, inhibition of rcDNA formation, bDNA quantitation; read-out: DE-19bDNA EC50
Measurement Name: log10(EC50) (log10 of the value in nM)

In [3]: df
Out[3]:
                              record_smiles  measurement_name  observed
0  CN(C(=O)c1cn2cc(Cl)ccc2n1)[C@@H]1COCc2[nH]c(=O)c3cc(F)c(F)cc3c21       log10(EC50)      3.11
1  CN(C(=O)c1cc2cnccc2[nH]1)[C@@H]1COCc2[nH]c(=O)c3cc(F)c(F)cc3c21       log10(EC50)      2.79
2  CN(C(=O)c1ccc(F)c(Cl)c1)[C@@H]1COCc2[nH]c(=O)c3cc(F)c(F)cc3c21       log10(EC50)      1.60
3  CN(C(=O)c1ccc(C(F)(F)F)cc1)[C@@H]1COCc2[nH]c(=O)c3cc(F)c(F)cc3c21       log10(EC50)      1.00
4  CN(C(=O)c1ccnc(C(F)F)c1)[C@@H]1COCc2[nH]c(=O)c3cc(F)c(F)cc3c21       log10(EC50)      2.23
